Where do these numbers come from? They come from PubChem BioAssay AID504877.

- Target of assay: Sphingosine 1-phosphate receptor 4 (Homo sapiens)
- Protocol description: S1P4 receptor agonist potency, late-stage follow-up, cell-based, fluorescence, dose response, synthesized compounds set 2 (AID 504877)
- Assay conditions: S1P4 cell-based agonist assay, fluorescence read-out; run 2
Calls of active or inactive are those of the source. How the calls were made is not given here.
Your answer must be one of the following: 1 for active, 0 for inactive

Some solved cases for reference:
Compound	Group label
CN=C1S/C(=C\c2cc(C)n(-c3ccccc3Br)c2C)C(=O)N1C	0
CCN=C1S/C(=C\c2cc(C)n(-c3ccccc3)c2C)C(=O)N1CC	1
Cc1cc(/C=C2\SC(=O)N(C)C2=O)c(C)n1-c1ccccc1F	0
CCN=C1S/C(=C/c2cc(C)n(Cc3ccccc3)c2C)C(=O)N1CC	1
COCCN=C1S/C(=C\c2cc(C)n(-c3ccc(F)cc3F)c2C)C(=O)N1C	1

Exercise: Any idea what this test logged for CCN=C1S/C(=C/c2cc(C)n(-c3ccc(Cl)cc3F)c2C)C(=O)N1CC ?
Solution: 1

Exercise: Any idea what this test logged for Cc1cc(/C=c2\sc3n(c2=O)CCCN=3)c(C)n1-c1ccccc1F ?
Solution: 0

Exercise: Any idea what this test logged for CN=C1S/C(=C\c2ccn(-c3ccccc3F)c2)C(=O)N1C ?
Solution: 0

Exercise: Any idea what this test logged for CN=C1S/C(=C\c2ccn(Cc3ccccc3)c2)C(=O)N1C ?
Solution: 0

Exercise: Any idea what this test logged for CN=C1S/C(=C/c2cc(C)n(-c3ccccc3C)c2C)C(=O)N1C ?
Solution: 0

Exercise: Any idea what this test logged for CN=C1S/C(=C/c2cc(C)n(-c3cc(C)ccc3OC)c2C)C(=O)N1C ?
Solution: 0

Exercise: Any idea what this test logged for COCCN=C1S/C(=C\c2cc(C)n(Cc3ccccc3)c2C)C(=O)N1CCOC ?
Solution: 0

====

- Target of assay: Sphingosine 1-phosphate receptor 4 (Homo sapiens)
- Protocol description: S1P4 receptor agonist potency, late-stage follow-up, cell-based, fluorescence, dose response, synthesized compounds set 2 (AID 504877)
- Assay conditions: S1P4 cell-based agonist assay, fluorescence read-out; run 1
The source made the active and inactive calls. How the calls were made is not given here.
Your answer must be one of the following: active, inactive

CCN=C1S/C(=C\c2cc(C)n(-c3ccccc3)c2C)C(=O)N1CC active
CCN=C1S/C(=C/c2cc(C)n(-c3ccc(Cl)cc3F)c2C)C(=O)N1CC active
CC/N=C1/SC(=Cc2cc(C)n(Cc3ccccc3OC)c2C)C(=O)N1CC active

Exercise: Any idea what this test logged for Cc1cc(/C=c2\sc3n(c2=O)CCCN=3)c(C)n1-c1ccccc1F ?
Solution: inactive

Exercise: Any idea what this test logged for C/N=C1/SC(=Cc2cc(C)n(Cc3ccc(F)cc3F)c2C)C(=O)N1C ?
Solution: active

====

- Target of assay: Sphingosine 1-phosphate receptor 4 (Homo sapiens)
- Protocol description: S1P4 receptor agonist potency, late-stage follow-up, cell-based, fluorescence, dose response, synthesized compounds set 2 (AID 504877)
- Assay conditions: S1P4 cell-based agonist assay, fluorescence read-out; run 2
Calls of active or inactive are those of the source. The rule behind the calls is not given here.
Your answer must be one of the following: 1 for active, -1 for inactive

Some solved cases for reference:
Compound	Group label
CC/N=C1/SC(=Cc2cc(C)n(Cc3ccccc3OC)c2C)C(=O)N1CC	1
CCN=C1S/C(=C\c2cc(C)n(-c3ccccc3F)c2C)C(=O)N1CC	1
CCN=C1S/C(=C/c2cc(C)n(C(C)c3ccccc3)c2C)C(=O)N1CC (stereo not given)	-1

Exercise: Any idea what this test logged for CCN=C1S/C(=C\c2ccn(-c3ccccc3F)c2)C(=O)N1CC ?
Solution: -1

Exercise: Any idea what this test logged for CN=C1S/C(=C/c2cc(C)n(Cc3ccccc3)c2C)C(=O)N1C ?
Solution: 1

Exercise: Any idea what this test logged for CCN=C1S/C(=C/c2cc(C)n(-c3ncccc3F)c2C)C(=O)N1CC ?
Solution: -1

Exercise: Any idea what this test logged for CN=C1NC(=O)/C(=C\c2cc(C)n(-c3ccccc3F)c2C)S1 ?
Solution: 1

Exercise: Any idea what this test logged for Cc1cc(/C=C2\SC(=NC(C)C)N(C(C)C)C2=O)c(C)n1-c1ccccc1F ?
Solution: -1

Exercise: Any idea what this test logged for CCN=C1S/C(=C\c2cc(C)n(Cc3ccccc3F)c2C)C(=O)N1CC ?
Solution: -1

Exercise: Any idea what this test logged for CN=C1S/C(=C/c2cc(C)n(-c3ccc(Cl)cc3F)c2C)C(=O)N1C ?
Solution: 1
